molecular target: ROCK1 (Homo sapiens (Human), UniProt Q13464); test: KINATIV assay; type: cell-based; conditions: 1 μM, 90 minutes, BCWM.1 cells
Endpoint Name: % change of MS signal compared to control sample (%)
Kindly answer with a numeric value in %, unit omitted.

| Compound | Assay Value |
| --- | --- |
| C=CC(=O)N1CC[C@@H](Nc2nccc(Nc3ncc(C(=O)Nc4c(C)cccc4C)s3)n2)C1 [Example I-4] | 6.7 |
| C=CC(=O)N1CCC(CNc2nccc(Nc3ncc(C(=O)Nc4c(C)cccc4C)s3)n2)C1 (racemic) [Example I-8] | 4.4 |

Recall the recorded % change of MS signal compared to control sample for C=CC(=O)N1CCC(Cn2ccc(Nc3ncc(C(=O)Nc4c(C)cccc4Cl)s3)n2)C1 (stereo not shown) [II-1] with ROCK1 (Homo sapiens (Human), UniProt Q13464) and state it. 12.8

Recall the recorded % change of MS signal compared to control sample for C=CC(=O)N1CCCCC(Nc2nccc(Nc3ncc(C(=O)Nc4c(C)cccc4C)s3)n2)C1 (stereo not shown) [Example I-7] with ROCK1 (Homo sapiens (Human), UniProt Q13464) and state it. 6.6

----------
system: HBL-1; experiment: CellTiter-Glo Luminescent cell viability assay; format: cell-based; conditions: HBL1; cell survival, 72 hours
Endpoint Name: EC50 (nM)
Kindly answer with a numeric value in nM, unit omitted.

I would be grateful if you could share the reported EC50 for Cc1nc(Nc2ncc(C(=O)Nc3c(C)cccc3Cl)s2)cc(N2CCN(CCO)CC2)n1 [Dasatinib, dasatinib, reference compound] . 190

----------
biological target: UniProtKB P54762; assay: KINATIV assay; format: cell-based; conditions: 1 μM, 90 minutes, BCWM.1 cells
Sequence (P54762 18-984): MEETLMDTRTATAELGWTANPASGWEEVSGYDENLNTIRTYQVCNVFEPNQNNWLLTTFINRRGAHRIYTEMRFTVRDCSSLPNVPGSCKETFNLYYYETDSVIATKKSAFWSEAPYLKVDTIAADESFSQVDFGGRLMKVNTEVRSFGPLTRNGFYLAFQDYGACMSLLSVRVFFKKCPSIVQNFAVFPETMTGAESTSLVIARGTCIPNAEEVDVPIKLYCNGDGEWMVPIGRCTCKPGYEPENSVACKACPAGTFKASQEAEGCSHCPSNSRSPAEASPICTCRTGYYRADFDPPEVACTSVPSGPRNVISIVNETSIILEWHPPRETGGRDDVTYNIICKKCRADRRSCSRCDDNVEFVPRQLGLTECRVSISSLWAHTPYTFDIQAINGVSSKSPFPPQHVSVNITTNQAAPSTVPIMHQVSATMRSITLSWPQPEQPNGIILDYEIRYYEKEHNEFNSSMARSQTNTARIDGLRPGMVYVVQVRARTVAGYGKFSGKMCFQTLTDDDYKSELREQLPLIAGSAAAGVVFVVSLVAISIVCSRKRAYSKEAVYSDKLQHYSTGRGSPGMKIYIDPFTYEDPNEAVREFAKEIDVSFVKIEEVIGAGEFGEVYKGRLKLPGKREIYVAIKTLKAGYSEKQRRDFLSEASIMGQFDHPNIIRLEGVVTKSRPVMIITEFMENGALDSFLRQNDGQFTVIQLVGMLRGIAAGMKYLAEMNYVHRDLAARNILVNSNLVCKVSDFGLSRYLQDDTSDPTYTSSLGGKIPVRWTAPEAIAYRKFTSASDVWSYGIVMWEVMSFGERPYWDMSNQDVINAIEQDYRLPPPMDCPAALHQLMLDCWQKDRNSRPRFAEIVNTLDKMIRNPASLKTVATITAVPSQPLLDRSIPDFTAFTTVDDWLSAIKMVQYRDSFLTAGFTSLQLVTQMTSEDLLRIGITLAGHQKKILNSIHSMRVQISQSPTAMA
Endpoint Name: % change of MS signal compared to control sample

Observe how each entry below is paired with its result.
| Compound | Assay Value |
| --- | --- |
| C=CC(=O)N1CCCCC(Nc2nccc(Nc3ncc(C(=O)Nc4c(C)cccc4C)s3)n2)C1 (stereo not shown) | >97% |
| C=CC(=O)N1CC[C@@H](Nc2nccc(Nc3ncc(C(=O)Nc4c(C)cccc4C)s3)n2)C1 | >97% |
| C=CC(=O)N1CCC(CNc2nccc(Nc3ncc(C(=O)Nc4c(C)cccc4C)s3)n2)C1 (racemic) | >97% |

Shift focus to the following entry.
I would be grateful if you could share the reported % change of MS signal compared to control sample for C=CC(=O)N1CCC(Cn2ccc(Nc3ncc(C(=O)Nc4c(C)cccc4Cl)s3)n2)C1 (stereo not shown) . 91.0%

----------
# % change of MS signal compared to control sample per record follows
target: RSK1 domain2 (Homo sapiens (Human), UniProt Q15418); experiment: KINATIV assay; type: cell-based; settings: 1 μM, 90 minutes, BCWM.1 cells
Sequence (Q15418 whole entry, the tested form may be a part): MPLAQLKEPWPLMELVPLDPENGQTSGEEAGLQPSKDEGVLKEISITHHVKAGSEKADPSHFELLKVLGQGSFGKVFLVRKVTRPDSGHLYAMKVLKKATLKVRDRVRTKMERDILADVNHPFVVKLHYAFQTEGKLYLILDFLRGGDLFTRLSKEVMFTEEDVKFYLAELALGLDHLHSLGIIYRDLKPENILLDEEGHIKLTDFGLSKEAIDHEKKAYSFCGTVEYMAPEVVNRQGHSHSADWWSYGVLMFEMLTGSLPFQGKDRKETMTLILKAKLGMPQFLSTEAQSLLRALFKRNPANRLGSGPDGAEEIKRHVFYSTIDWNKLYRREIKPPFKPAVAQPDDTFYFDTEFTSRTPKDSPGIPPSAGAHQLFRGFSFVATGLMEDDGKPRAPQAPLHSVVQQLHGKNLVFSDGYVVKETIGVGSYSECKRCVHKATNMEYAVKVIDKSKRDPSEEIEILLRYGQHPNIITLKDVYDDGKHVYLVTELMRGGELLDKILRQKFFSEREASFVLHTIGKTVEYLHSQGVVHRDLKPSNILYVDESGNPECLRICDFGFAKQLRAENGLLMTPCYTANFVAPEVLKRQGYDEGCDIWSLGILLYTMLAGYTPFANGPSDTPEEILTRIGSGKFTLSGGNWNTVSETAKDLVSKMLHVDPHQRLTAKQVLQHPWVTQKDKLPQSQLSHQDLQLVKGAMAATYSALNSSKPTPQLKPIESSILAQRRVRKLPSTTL
Reply with the number and its unit after it.

Observe how each entry below is paired with its result.
| Compound | Assay Value |
| --- | --- |
| C=CC(=O)N1CCC(Cn2ccc(Nc3ncc(C(=O)Nc4c(C)cccc4Cl)s3)n2)C1 (stereo not shown) [II-1] | 14.0% |
| C=CC(=O)N1CCC(CNc2nccc(Nc3ncc(C(=O)Nc4c(C)cccc4C)s3)n2)C1 (racemic) [Example I-8] | 0.5% |
| C=CC(=O)N1CCCCC(Nc2nccc(Nc3ncc(C(=O)Nc4c(C)cccc4C)s3)n2)C1 (stereo not shown) [Example I-7] | 4.9% |

Shift focus to the following entry.
I would be grateful if you could share the reported % change of MS signal compared to control sample for C=CC(=O)N1CC[C@@H](Nc2nccc(Nc3ncc(C(=O)Nc4c(C)cccc4C)s3)n2)C1 [Example I-4] . 12.5%

----------
molecular target: UniProt:P78368; assay: KINATIV assay; format: cell-based; conditions: 1 μM, 90 minutes, BCWM.1 cells
Sequence (P78368 whole entry): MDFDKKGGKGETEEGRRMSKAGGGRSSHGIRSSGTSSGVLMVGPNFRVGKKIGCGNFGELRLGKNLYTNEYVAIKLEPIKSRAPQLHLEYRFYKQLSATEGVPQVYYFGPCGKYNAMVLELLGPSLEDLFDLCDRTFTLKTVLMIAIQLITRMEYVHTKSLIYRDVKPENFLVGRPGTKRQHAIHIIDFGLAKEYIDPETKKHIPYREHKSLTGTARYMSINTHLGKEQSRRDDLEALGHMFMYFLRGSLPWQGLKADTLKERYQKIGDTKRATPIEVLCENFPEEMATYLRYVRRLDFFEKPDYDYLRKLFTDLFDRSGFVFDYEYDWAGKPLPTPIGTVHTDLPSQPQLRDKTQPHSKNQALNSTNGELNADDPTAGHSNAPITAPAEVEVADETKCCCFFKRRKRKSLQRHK
# % change of MS signal compared to control sample per record follows
Kindly answer with a numeric value in %, unit omitted.

Observe how each entry below is paired with its result.
| Compound | Readout Units | Assay Value |
| --- | --- | --- |
| C=CC(=O)N1CC[C@@H](Nc2nccc(Nc3ncc(C(=O)Nc4c(C)cccc4C)s3)n2)C1 | % | −4.5 |
| C=CC(=O)N1CCCCC(Nc2nccc(Nc3ncc(C(=O)Nc4c(C)cccc4C)s3)n2)C1 (stereo not shown) | % | −3.7 |
| C=CC(=O)N1CCC(CNc2nccc(Nc3ncc(C(=O)Nc4c(C)cccc4C)s3)n2)C1 (racemic) | % | −6.1 |

Shift focus to the following entry.
Recall the recorded % change of MS signal compared to control sample for C=CC(=O)N1CCC(Cn2ccc(Nc3ncc(C(=O)Nc4c(C)cccc4Cl)s3)n2)C1 (stereo not shown) with UniProt:P78368 and state it. −1.1

----------
target: MST4 (Homo sapiens (Human), UniProt Q9P289); assay: KINATIV assay; assay type: cell-based; settings: 1 μM, 90 minutes, BCWM.1 cells
Sequence (Q9P289 whole entry): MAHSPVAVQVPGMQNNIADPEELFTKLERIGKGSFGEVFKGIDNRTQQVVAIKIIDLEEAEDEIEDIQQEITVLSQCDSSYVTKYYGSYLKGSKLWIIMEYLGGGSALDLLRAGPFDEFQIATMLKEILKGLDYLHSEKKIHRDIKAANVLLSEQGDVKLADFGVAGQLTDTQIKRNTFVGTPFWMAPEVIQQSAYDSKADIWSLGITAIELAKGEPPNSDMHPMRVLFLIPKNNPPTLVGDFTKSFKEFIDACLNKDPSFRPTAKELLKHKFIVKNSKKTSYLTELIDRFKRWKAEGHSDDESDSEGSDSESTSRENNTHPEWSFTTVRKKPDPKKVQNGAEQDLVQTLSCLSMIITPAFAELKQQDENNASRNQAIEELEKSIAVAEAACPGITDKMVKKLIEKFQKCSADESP
Endpoint Name: % change of MS signal compared to control sample (%)
Kindly answer with a numeric value in %, unit omitted.

Observe how each entry below is paired with its result.
| Compound | Assay Value |
| --- | --- |
| C=CC(=O)N1CC[C@@H](Nc2nccc(Nc3ncc(C(=O)Nc4c(C)cccc4C)s3)n2)C1 [Example I-4] | −13.2 |
| C=CC(=O)N1CCCCC(Nc2nccc(Nc3ncc(C(=O)Nc4c(C)cccc4C)s3)n2)C1 (stereo not shown) [Example I-7] | 11.6 |
| C=CC(=O)N1CCC(Cn2ccc(Nc3ncc(C(=O)Nc4c(C)cccc4Cl)s3)n2)C1 (stereo not shown) [II-1] | 21.1 |

I would be grateful if you could share the reported % change of MS signal compared to control sample for C=CC(=O)N1CCC(CNc2nccc(Nc3ncc(C(=O)Nc4c(C)cccc4C)s3)n2)C1 (racemic) [Example I-8] . −0.8

----------
biological target: PIK3CD (Homo sapiens (Human)); experiment: KINATIV assay; type: cell-based; details: 1 μM, 90 minutes, BCWM.1 cells
Endpoint Name: % change of MS signal compared to control sample (%)
Kindly answer with a numeric value in %, unit omitted.

| Molecule | Study System | Readout Units | Assay Value |
| --- | --- | --- | --- |
| C=CC(=O)N1CC[C@@H](Nc2nccc(Nc3ncc(C(=O)Nc4c(C)cccc4C)s3)n2)C1 | PIK3CD (Homo sapiens (Human)) | % | −14.5 |
| C=CC(=O)N1CCCCC(Nc2nccc(Nc3ncc(C(=O)Nc4c(C)cccc4C)s3)n2)C1 (stereo not shown) | PIK3CD (Homo sapiens (Human)) | % | −19.1 |
| C=CC(=O)N1CCC(Cn2ccc(Nc3ncc(C(=O)Nc4c(C)cccc4Cl)s3)n2)C1 (stereo not shown) | PIK3CD (Homo sapiens (Human)) | % | −9.5 |

I would be grateful if you could share the reported % change of MS signal compared to control sample for C=CC(=O)N1CCC(CNc2nccc(Nc3ncc(C(=O)Nc4c(C)cccc4C)s3)n2)C1 (racemic) . −16.2

----------
# % change of MS signal compared to control sample per record follows
target: NEK1 (Homo sapiens (Human), UniProt Q96PY6); experiment: KINATIV assay; type: cell-based; conditions: 1 μM, 90 minutes, BCWM.1 cells
Sequence (Q96PY6 whole entry): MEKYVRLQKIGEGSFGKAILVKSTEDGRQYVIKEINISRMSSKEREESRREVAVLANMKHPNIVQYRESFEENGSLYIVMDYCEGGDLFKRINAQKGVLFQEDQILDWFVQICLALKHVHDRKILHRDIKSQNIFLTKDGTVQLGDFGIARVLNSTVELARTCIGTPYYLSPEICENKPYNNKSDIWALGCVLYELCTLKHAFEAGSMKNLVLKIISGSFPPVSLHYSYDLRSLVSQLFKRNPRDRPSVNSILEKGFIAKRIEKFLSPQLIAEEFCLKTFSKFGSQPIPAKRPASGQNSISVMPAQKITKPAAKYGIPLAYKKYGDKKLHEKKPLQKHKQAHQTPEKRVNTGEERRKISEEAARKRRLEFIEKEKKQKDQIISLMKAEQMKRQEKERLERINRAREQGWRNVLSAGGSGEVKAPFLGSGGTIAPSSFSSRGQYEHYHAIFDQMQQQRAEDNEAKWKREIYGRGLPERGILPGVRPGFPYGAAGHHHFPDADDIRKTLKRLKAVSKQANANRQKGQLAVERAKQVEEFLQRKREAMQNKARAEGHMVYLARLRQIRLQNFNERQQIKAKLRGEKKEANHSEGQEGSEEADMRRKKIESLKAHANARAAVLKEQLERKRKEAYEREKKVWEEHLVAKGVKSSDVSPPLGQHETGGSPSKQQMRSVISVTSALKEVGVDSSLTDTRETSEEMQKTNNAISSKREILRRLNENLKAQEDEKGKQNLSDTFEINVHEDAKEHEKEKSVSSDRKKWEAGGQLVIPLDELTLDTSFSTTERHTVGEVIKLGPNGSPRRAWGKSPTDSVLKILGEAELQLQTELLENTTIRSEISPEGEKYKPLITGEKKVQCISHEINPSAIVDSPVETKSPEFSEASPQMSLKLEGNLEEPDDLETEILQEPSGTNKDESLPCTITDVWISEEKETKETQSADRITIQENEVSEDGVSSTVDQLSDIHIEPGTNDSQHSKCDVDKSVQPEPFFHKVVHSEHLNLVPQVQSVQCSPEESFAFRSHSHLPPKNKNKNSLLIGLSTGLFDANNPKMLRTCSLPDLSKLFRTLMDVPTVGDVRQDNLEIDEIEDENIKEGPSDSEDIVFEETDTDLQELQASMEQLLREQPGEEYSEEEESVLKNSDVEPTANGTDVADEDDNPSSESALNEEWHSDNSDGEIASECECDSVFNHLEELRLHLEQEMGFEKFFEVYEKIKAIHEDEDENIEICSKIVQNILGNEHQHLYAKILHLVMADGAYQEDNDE
Kindly answer with a numeric value in %, unit omitted.

| Compound | Study System | Assay Value |
| --- | --- | --- |
| C=CC(=O)N1CCC(Cn2ccc(Nc3ncc(C(=O)Nc4c(C)cccc4Cl)s3)n2)C1 (stereo not shown) | NEK1 (Homo sapiens (Human), UniProt Q96PY6) | 14.9 |

Recall the recorded % change of MS signal compared to control sample for "C=CC(=O)N1CC[C@@H](Nc2nccc(Nc3ncc(C(=O)Nc4c(C)cccc4C)s3)n2)C1" with NEK1 (Homo sapiens (Human), UniProt Q96PY6) and state it. 7.3

Recall the recorded % change of MS signal compared to control sample for C=CC(=O)N1CCC(CNc2nccc(Nc3ncc(C(=O)Nc4c(C)cccc4C)s3)n2)C1 (racemic) with NEK1 (Homo sapiens (Human), UniProt Q96PY6) and state it. 12.8

Recall the recorded % change of MS signal compared to control sample for C=CC(=O)N1CCCCC(Nc2nccc(Nc3ncc(C(=O)Nc4c(C)cccc4C)s3)n2)C1 (stereo not shown) with NEK1 (Homo sapiens (Human), UniProt Q96PY6) and state it. 11.4

----------
# % change of MS signal compared to control sample per record follows
target: UniProt Q96GD4; test: KINATIV assay; assay type: cell-based; settings: 1 μM, 90 minutes, BCWM.1 cells
Sequence (Q96GD4 whole entry): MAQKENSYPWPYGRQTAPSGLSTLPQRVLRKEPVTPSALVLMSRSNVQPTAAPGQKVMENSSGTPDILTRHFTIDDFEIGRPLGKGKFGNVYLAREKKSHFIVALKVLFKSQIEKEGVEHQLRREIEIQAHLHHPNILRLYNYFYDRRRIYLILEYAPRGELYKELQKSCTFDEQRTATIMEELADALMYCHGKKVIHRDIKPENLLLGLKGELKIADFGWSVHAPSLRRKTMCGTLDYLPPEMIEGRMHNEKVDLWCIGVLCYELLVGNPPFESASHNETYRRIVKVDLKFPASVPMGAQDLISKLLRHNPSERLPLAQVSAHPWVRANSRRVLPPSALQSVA
Kindly answer with a numeric value in %, unit omitted.

Observe how each entry below is paired with its result.
| Compound | Study System | Assay Value |
| --- | --- | --- |
| C=CC(=O)N1CC[C@@H](Nc2nccc(Nc3ncc(C(=O)Nc4c(C)cccc4C)s3)n2)C1 [Example I-4] | UniProt Q96GD4 | −10.1 |
| C=CC(=O)N1CCCCC(Nc2nccc(Nc3ncc(C(=O)Nc4c(C)cccc4C)s3)n2)C1 (stereo not shown) [Example I-7] | UniProt Q96GD4 | −6.1 |
| C=CC(=O)N1CCC(Cn2ccc(Nc3ncc(C(=O)Nc4c(C)cccc4Cl)s3)n2)C1 (stereo not shown) [II-1] | UniProt Q96GD4 | −7.2 |

Shift focus to the following entry.
I would be grateful if you could share the reported % change of MS signal compared to control sample for C=CC(=O)N1CCC(CNc2nccc(Nc3ncc(C(=O)Nc4c(C)cccc4C)s3)n2)C1 (racemic) [Example I-8] . −14.3
